Provenance of the data: ChEMBL document CHEMBL1131674

Test system: XF498
Assay: In vitro cytotoxic activity against XF 498 (CNS) using SRB (sulforhodamine B) assay
Format: functional, cell-based, Homo sapiens
Conditions: Homo sapiens, XF498; read-out: IC50
Classify: 1 (yes) when IC50 is strictly less than 0.6 mg/L; 0 (no) when IC50 is not.

substance_smiles=COc1ccc(NC2=C(Cl)C(=O)c3ccncc3C2=O)cc1 assigned_label="1 (yes)"
substance_smiles=O=C1C(Cl)=C(Nc2ccccc2)C(=O)c2cnccc21 assigned_label="0 (no)"
substance_smiles=O=C1C(Cl)=C(Nc2ccc(CCO)cc2)C(=O)c2ncccc21 assigned_label="1 (yes)"
substance_smiles=O=C1/C(=N/c2ccc(O)cc2)C(Cl)=C(O)c2cccnc21 assigned_label="0 (no)"
substance_smiles=O=C1C(Cl)=C(Nc2ccc(F)cc2)C(=O)c2ncccc21 assigned_label="1 (yes)"
substance_smiles=COc1ccc(NC2=C(Cl)C(=O)c3cccnc3C2=O)cc1 assigned_label="0 (no)"
substance_smiles=O=C1C(Cl)=C(Nc2ccc(Cl)cc2)C(=O)c2ncccc21 assigned_label="0 (no)"
substance_smiles=CCOc1ccc(NC2=C(Cl)C(=O)c3cccnc3C2=O)cc1 assigned_label="1 (yes)"
substance_smiles=CCOc1ccc(NC2=C(Cl)C(=O)c3ccncc3C2=O)cc1 assigned_label="1 (yes)"
substance_smiles=O=C1/C(=N/c2ccc(O)cc2)C(Cl)=C(O)c2ccncc21 assigned_label="1 (yes)"
substance_smiles=O=C1C(Cl)=C(Nc2ccc(F)cc2)C(=O)c2cnccc21 assigned_label="1 (yes)"

* * *

Tested on: HCT-15
Assay: In vitro cytotoxic activity against HCT-15 (colon) using SRB (sulforhodamine B) assay
Type: functional, cell-based, Homo sapiens
Conditions: Homo sapiens, HCT-15; read-out: IC50
Measured Parameter: log10 IC50 (log10 of the value in µg/mL)

compound=N#Cc1ccc(NC2=C(Cl)C(=O)c3cccnc3C2=O)cc1 recorded_measurement=0.16
compound=O=C1C(Cl)=C(Nc2ccc(F)cc2)C(=O)c2ncccc21 recorded_measurement=-0.74
compound=O=C1/C(=N/c2ccc(O)cc2)C(Cl)=C(O)c2cccnc21 recorded_measurement=-0.07
compound=O=C1C(Cl)=C(Nc2ccc(Cl)cc2)C(=O)c2cnccc21 recorded_measurement=-0.51
compound=O=C1C(Cl)=C(Nc2ccc(CCO)cc2)C(=O)c2cnccc21 recorded_measurement=-0.74
compound=O=C1C(Cl)=C(Nc2ccc(Br)cc2)C(=O)c2ncccc21 recorded_measurement=-0.47
compound=COc1ccc(NC2=C(Cl)C(=O)c3cccnc3C2=O)cc1 recorded_measurement=-0.48
compound=O=C1C(Cl)=C(Nc2ccc(Cl)cc2)C(=O)c2ncccc21 recorded_measurement=-0.47
compound=O=C1C(Cl)=C(Nc2ccc(F)cc2)C(=O)c2cnccc21 recorded_measurement=-1.15
compound="COC1=C(N)C(=O)c2nc(-c3nc(C(=O)O)c(C)c(-c4ccc(OC)c(OC)c4O)c3N)ccc2C1=O [STREPTONIGRIN]" recorded_measurement=-1.70
compound=CCc1ccc(NC2=C(Cl)C(=O)c3cccnc3C2=O)cc1 recorded_measurement=0.14

* * *

Quick reference for IC50 among some molecules
Tested on: HCT-15
Test: In vitro cytotoxic activity against HCT-15 (colon) using SRB (sulforhodamine B) assay
Format: functional, cell-based, Homo sapiens
Conditions: Homo sapiens, HCT-15; read-out: IC50
Measured Parameter: IC50 (µg/mL)

substance_smiles=O=C1C(Cl)=C(Nc2ccccc2)C(=O)c2cnccc21 measured_parameter=IC50 recorded_measurement=0.1
substance_smiles=Cc1ccc(NC2=C(Cl)C(=O)c3ccncc3C2=O)cc1 measured_parameter=IC50 recorded_measurement=0.11
substance_smiles=CCc1ccc(NC2=C(Cl)C(=O)c3ccncc3C2=O)cc1 measured_parameter=IC50 recorded_measurement=0.05
substance_smiles=Cc1ccc(NC2=C(Cl)C(=O)c3cccnc3C2=O)cc1 measured_parameter=IC50 recorded_measurement=0.33
substance_smiles=N#Cc1ccc(NC2=C(Cl)C(=O)c3ccncc3C2=O)cc1 measured_parameter=IC50 recorded_measurement=0.13
substance_smiles=O=C1/C(=N/c2ccc(O)cc2)C(Cl)=C(O)c2ccncc21 measured_parameter=IC50 recorded_measurement=0.05
